Target or system: ORAI1 (Homo sapiens)
Construct: ORAI1 transiently co-transfected with STIM1 in HEK293T cells; with STIM1
Sequence (Q96D31 whole entry): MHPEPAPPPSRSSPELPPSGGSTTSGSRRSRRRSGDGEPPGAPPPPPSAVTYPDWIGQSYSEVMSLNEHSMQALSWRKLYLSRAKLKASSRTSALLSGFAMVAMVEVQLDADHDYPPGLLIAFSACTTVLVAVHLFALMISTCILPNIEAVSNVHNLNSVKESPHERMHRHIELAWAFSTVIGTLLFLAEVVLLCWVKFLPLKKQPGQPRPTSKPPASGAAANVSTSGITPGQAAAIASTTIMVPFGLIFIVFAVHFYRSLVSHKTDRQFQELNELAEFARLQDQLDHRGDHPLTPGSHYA
Sequence (Q13586 23-685 partner): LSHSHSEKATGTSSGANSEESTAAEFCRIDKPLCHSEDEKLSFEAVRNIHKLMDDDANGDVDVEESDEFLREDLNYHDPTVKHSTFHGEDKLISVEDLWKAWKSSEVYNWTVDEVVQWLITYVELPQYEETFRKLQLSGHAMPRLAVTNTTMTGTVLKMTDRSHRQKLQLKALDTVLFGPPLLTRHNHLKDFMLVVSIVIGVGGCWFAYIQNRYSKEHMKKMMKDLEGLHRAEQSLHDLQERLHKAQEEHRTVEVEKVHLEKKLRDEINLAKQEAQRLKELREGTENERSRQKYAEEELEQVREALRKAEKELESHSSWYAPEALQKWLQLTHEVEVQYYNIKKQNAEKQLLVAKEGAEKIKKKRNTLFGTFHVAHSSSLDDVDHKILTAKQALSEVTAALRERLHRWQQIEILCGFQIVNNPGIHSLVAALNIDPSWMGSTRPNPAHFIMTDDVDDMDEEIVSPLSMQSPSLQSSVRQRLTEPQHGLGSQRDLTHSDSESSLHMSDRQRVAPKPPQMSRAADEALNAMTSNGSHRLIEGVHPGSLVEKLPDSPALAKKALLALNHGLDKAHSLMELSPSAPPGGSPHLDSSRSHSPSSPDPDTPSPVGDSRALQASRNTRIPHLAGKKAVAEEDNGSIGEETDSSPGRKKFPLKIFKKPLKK
Protocol details: patch-clamp of ICRAC in HEK293T cells co-expressing ORAI1 and STIM1
Property name: IC50 (µM)
Express it in µM; write the number only.

Return IC50 (reported value) for this compound: "C=C(C)[C@@H]1CC[C@]2(C(=O)O)CC[C@]3(C)[C@H](CC[C@@H]4[C@@]5(C)C[C@@H](O)[C@H](O)C(C)(C)[C@@H]5CC[C@]43C)[C@@H]12"
17.5
